Data provenance: PubChem BioAssay (NCI)

Test system: 786-0 renal
Experiment: NCI tumour cell line growth inhibition, 48 h
Listed next: entries and their corresponding TGI.
Kindly answer with a numeric value in µM, unit omitted.

Structure	Target desc	TGI (µM)
O=S(=O)(NC1=NCCN1C(=S)SN1CCn2c1nsc2=S)c1cccc(OC(F)(F)F)c1	786-0 renal	27.1

Lookup: Dear colleague, I am looking for the recorded TGI of the following compound: S=C(N/N=C\c1ccccn1)N(Cc1ccccn1)Cc1ccccn1
Found: 13.3

Lookup: Which value of TGI has been reported for Cc1oc2c(c1C(=O)N1CC[C@@H](N)C1)C(=O)c1c(c(O)c3ccccc3c1O)C2=O in the records?
Found: 17.3

Lookup: Record request: TGI value, item COc1cccc(CC(C)=C(c2ccc(OCCCN(C)C)cc2)c2ccc(OCCCN(C)C)cc2)c1
Found: 0.771

Lookup: If you can, please state the reported TGI value of C/C(=C\Cc1cc(O)ccc1O)CCc1c(C)c(O)c(O)c(C=O)c1C .
Found: 62.2

Lookup: Requested read-out: TGI. Entry: N/C(=N\c1nc2ccccc2s1)NC(=NC1CCCCC1)NC1CCCCC1
Found: 3.23

Lookup: Query: TGI; subject: O=c1[nH]c2cc3cccnc3c(Cl)c2nc1CBr
Found: 25.2

Lookup: What value of measured TGI is listed for CCn1c2ccc(O)c(C(=O)OC)c2c2cc3ccccc3c(O)c21 ?
Found: 30.7

Lookup: Endpoint output: TGI of Clc1ccccc1NN(Cc1ccncc1)c1ccccc1Cl . Value?
Found: 26.6

Lookup: // query TGI value for entry O=[N+]([O-])c1ccc2c(Nc3ccccc3-c3ccccc3Nc3c4ccccc4nc4cc([N+](=O)[O-])ccc34)c3ccccc3nc2c1
Found: 13.4

###

Tested on: MCF7 breast
Experiment: NCI tumour cell line growth inhibition, 48 h
Value type: TGI (µM)
Write the number in µM without appending the unit.

>>> df
                                   compound  target_desc  value_type  measurement
0  CCN(CC)CCCC(C)Nc1c(-c2ccccc2)cnc2cc(Cl)ccc12 (stereo unspecified)  MCF7 breast         TGI         17.7
1  COc1cccc(C2C(C#N)=C(N)Oc3c2ccc2ccccc32)c1 (stereo unspecified)  MCF7 breast         TGI         12.8
2         Clc1ccccc1NN(Cc1ccncc1)c1ccccc1Cl  MCF7 breast         TGI         53.5

Lookup: Query (compound): Cc1ccc(S(=O)(=O)c2ccc([N+](=O)[O-])o2)cc1 ; field requested: TGI
Found: 7.13

###

Test system: NCI-H460 lung
Assay: NCI tumour cell line growth inhibition, 48 h
// reported TGI per item

Example entries and their recorded answers appear below.
>>> print(df.to_string())
                                   compound  value_type  measurement
0              Nc1cc2cccc[n+]2c2cccc(Cl)c12         TGI      58.7 µM
1  O=C1CSC(c2ccccc2O)N1c1nnc(Cn2ccnc2)o1 (stereo unspecified)         TGI     > 100 µM
2  COc1ccc2c(c1OC)C(=O)O[C@@H]2[C@H]1c2cc3c(cc2CCN1C)OCO3         TGI     > 100 µM
3             COC(=O)/C(C#N)=C1\CCc2ccccc21         TGI     > 100 µM
4  CN1Cc2c(nc(-c3ccc(Br)cc3)c[n+]2[O-])N(C)C1         TGI     > 100 µM

Then this compound:
Lookup: Would you kindly share the measured TGI for O=c1[nH]c2cc3cccnc3c(Cl)c2nc1CBr ?
Found: 39.7 µM
